For each record, write down the corresponding pIC50.
biological target: pUL15C (Human herpesvirus 1); assay: Dual-probe fluorescence assay of pUL15C nuclease activity; assay type: biochemical
Sequence (P04295 471-735): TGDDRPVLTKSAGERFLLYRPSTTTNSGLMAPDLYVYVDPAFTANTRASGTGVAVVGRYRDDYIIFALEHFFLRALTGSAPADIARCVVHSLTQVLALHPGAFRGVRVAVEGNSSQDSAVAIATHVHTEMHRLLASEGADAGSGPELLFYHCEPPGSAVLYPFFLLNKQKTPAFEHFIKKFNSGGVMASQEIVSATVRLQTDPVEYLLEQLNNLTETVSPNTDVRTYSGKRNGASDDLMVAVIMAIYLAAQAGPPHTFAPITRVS
Please note pIC50 is a logarithmic value: minus log10 of concentration in mol/L. Answer with that number alone.

Reported pIC50 of Cc1nnc(C(=O)NC(C)(C)c2nc(C(=O)NCc3ccc(F)cc3)c(O)c(=O)n2C)o1 : 6.41

GET /value?item= C[C@@H]1CCO[C@H]2Cn3cc(C(=O)NCc4ccc(F)cc4F)c(=O)c(O)c3C(=O)N12 &field=pIC50 returns 5.96

###

molecular target: UniProt P04295; assay: pUL15C nuclease activity on supercoiled plasmid, agarose gel electrophoresis; format: biochemical, herpes simplex virus
Recorded metric: IC50
Answer shape: numeric part, then the unit.

Lookup result for CC(C)c1ccc(O)c(=O)c(O)c1 [β-thujaplicinol] ; measured IC50: 2000 nM
